- study.target: ABCG2 (Homo sapiens, UniProt Q9UNQ0)
- Sequence (Q9UNQ0 whole entry): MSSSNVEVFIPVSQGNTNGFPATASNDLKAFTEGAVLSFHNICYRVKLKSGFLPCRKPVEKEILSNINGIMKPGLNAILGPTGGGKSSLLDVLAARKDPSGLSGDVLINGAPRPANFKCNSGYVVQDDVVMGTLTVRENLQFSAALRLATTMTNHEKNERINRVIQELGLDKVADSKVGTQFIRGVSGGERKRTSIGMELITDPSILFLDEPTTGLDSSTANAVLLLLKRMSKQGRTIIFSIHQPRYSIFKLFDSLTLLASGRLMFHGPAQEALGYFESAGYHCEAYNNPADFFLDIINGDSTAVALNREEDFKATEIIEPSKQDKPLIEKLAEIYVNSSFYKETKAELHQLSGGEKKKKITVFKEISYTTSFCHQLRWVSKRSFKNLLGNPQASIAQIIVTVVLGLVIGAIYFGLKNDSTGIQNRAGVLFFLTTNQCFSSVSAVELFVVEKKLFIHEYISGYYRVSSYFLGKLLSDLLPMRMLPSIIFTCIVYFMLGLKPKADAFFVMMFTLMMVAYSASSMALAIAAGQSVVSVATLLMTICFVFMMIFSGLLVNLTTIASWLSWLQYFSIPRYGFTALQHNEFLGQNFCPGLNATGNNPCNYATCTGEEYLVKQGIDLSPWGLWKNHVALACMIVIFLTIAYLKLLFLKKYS
- test.method.notes: Inhibitory accumulation assay in MDCKII-ABCG2 cells
- Assay type: cell-based
- applied.conditions: 8 µM hoechst 33342, read-out: IC50, relative Hoechst 33342 accumulation
value.type: pIC50
pIC50 (log units): -log10 of the concentration in mol/L.

Look up pIC50: CN1CCC(COc2cnc(-c3cccc(Cn4nc(-c5cccc(C#N)c5)ccc4=O)c3)nc2)CC1
4.80

----------
- study.target: CYP3A5 (Homo sapiens)
- Sequence (P20815 whole entry): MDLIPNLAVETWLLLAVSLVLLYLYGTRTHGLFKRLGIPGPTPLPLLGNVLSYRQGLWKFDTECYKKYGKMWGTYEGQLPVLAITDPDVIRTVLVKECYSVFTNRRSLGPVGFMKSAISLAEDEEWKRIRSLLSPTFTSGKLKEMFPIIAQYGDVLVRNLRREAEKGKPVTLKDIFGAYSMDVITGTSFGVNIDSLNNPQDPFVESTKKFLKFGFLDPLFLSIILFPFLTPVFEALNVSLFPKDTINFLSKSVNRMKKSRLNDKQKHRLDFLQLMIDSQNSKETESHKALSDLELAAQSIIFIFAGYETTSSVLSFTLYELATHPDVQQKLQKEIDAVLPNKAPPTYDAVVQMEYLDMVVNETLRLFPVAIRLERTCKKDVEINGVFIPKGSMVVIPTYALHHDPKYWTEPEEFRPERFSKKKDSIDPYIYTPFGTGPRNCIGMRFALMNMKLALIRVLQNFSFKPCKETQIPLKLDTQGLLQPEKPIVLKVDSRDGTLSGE
- test.method.notes: Vivid CYP450 Screening Kit, recombinant CYP3A5
value.type: IC50 (µM)
API: value field is a number in µM; no unit string.

Any idea what IC50 came out for CN1CCC(COc2cnc(-c3cccc(Cn4nc(-c5cccc(C#N)c5)ccc4=O)c3)nc2)CC1 [tepotinib, Tepotinib] on CYP3A5 (Homo sapiens)?
38.8

Provenance of the data: paper PMC8584989
